The measured values listed here are drawn from patent JP2011219380A.

# Subject of test: T1, 成熟型ヒトVEGF-D(Hisタッグ付加、二量体、参考例3) (human, UniProt O43915 93-201)
# T1 construct: also called human VEGF-D; not shown: His tag
# T1 sequence: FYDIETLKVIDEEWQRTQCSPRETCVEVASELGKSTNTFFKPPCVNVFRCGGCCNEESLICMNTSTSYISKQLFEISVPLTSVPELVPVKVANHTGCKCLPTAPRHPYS
# Procedure details: competition cell ELISA, inhibition of human VEGF-D binding to human VEGFR-3 CHO cells, against chimeric VE48
Assay readout: binding result

ヒト化VE48抗体(H鎖:VE48HA、L鎖:VE48L6) (antibody, human IgG1, kappa, V domains shown, also called 48HA/48L6; HA/L6) VH: QVTLKESGPALVKPTQTLTLTCTFSGFSLSTYGMGVGWIRQPPGKALEWLANIWWNDDKYYNPVLRSRLTISKDTSKNQVVLTMTNMDPVDTATYYCVQVTNPFVFWGQGTLVTVSS VL: DIVMTQTPLSLPVTPGEPASISCRSSQSLVHINGNTYLHWYLQKPGQSPQLLIYKVSNRFSGVPDRFSGSGSGTDFTLKISRVEAEDVGVYFCSQSTHVPWTFGGGTKVEIKR ... binds
ヒト化抗体VE48抗体(48H16/48L6) (antibody, V domains shown, The light chain is VE48L6; also called VE48H16/VE48L6) VH: QVTLKESGPALVKPTQTLTLTCTFSGFSLSDYGMGVGWIRQPPGKALEWLANIWWNDDKYYNPVLRSRLTISKDTSKNQVVLTMTNMDPVDTATYYCVQVTNPFVFWGEGTLVTVSS VL: DIVMTQTPLSLPVTPGEPASISCRSSQSLVHINGNTYLHWYLQKPGQSPQLLIYKVSNRFSGVPDRFSGSGSGTDFTLKISRVEAEDVGVYFCSQSTHVPWTFGGGTKVEIKR ... binds
ヒト化抗体VE48抗体(48HI/48L6) (antibody, V domains shown, The light chain is VE48L6; also called VE48HI/VE48L6) VH: QVTLKESGPALVKPTQTLTLTCTFSGFSLSDYGMGVGWIRQPPGKALEWLANIWWNDDKYYNPVLRSRLTISKDTSKNQVVLTMTNMDPVDTATYYCVQVTNPFVFWGQGTLVTVSS VL: DIVMTQTPLSLPVTPGEPASISCRSSQSLVHINGNTYLHWYLQKPGQSPQLLIYKVSNRFSGVPDRFSGSGSGTDFTLKISRVEAEDVGVYFCSQSTHVPWTFGGGTKVEIKR ... binds
